Numbers sourced from ChEMBL document CHEMBL6121016.

- System: Staphylococcus aureus
- assay-details: Antibacterial activity against methicillin-resistant Staphylococcus aureus ATCC 33591 after 16 to 18 hrs by broth microdilution method
- Format: functional
- test-parameters: time 16-18 hrs
metric-name: MIC (µg/mL)
Give the value, in units of µg/mL, as a plain number.

Input line: For `CCCC[C@H](CN(O)C=O)C(=O)N1CCC[C@H]1c1nnc(-c2sccc2F)s1` , what is its reported MIC?
Output line: 0.5

Input line: For `CCCC[C@H](CN(O)C=O)C(=O)N1CCC[C@H]1c1nnc(-c2ccco2)s1` , what is its reported MIC?
Output line: 0.5

Input line: For `CCCC[C@H](CN(O)C=O)C(=O)N1CCC[C@H]1c1nnc(-c2cc(C)nn2C)s1` , what is its reported MIC?
Output line: 0.25

* * *

- assay-details: Aqueous solubility of compound at 0.9% aqueous NaCl solution incubated for 2 hrs by UV spectrophotometry analysis
- Type: physicochemical
metric-name: solubility at 2 h (µg/mL)
Give the value, in units of µg/mL, as a plain number.

Input line: For `CCCC[C@H](CN(O)C=O)C(=O)N1CCC[C@H]1c1nnc(-c2ccc(-c3ccccn3)cc2)s1` , what is its reported solubility at 2 h?
Output line: 370

* * *

- Tested on: Staphylococcus aureus
- assay-details: Antibacterial activity against methicillin-susceptible Staphylococcus aureus ATCC 25923 after 16 to 18 hrs by broth microdilution method
- Assay type: functional
- test-parameters: time 16-18 hrs
The compounds listed here are annotated with their MIC.

Answered cases to consult:
| smi | MIC |
| --- | --- |
| CCCC[C@H](CN(O)C=O)C(=O)N1CCC[C@H]1c1nnc(-c2ccc(Cl)s2)s1 | 1 µg/mL |
| CCCC[C@H](CN(O)C=O)C(=O)N1CCC[C@H]1c1nnc(-c2ccc(C(C)(C)C)cc2)s1 | 4 µg/mL |
| CCCC[C@H](CN(O)C=O)C(=O)N1CCC[C@H]1c1nnc(-c2ccc(Br)s2)s1 | 1 µg/mL |
| CCCC[C@H](CN(O)C=O)C(=O)N1CCC[C@H]1c1nnc(-c2ccc(F)cc2[N+](=O)[O-])s1 | 4 µg/mL |
| CCCC[C@H](CN(O)C=O)C(=O)N1CCC[C@H]1c1nnc(-c2ccncc2)s1 | 1 µg/mL |
| CCCC[C@H](CN(O)C=O)C(=O)N1CCC[C@H]1c1nnc(-c2ccc[nH]2)s1 | 1 µg/mL |
| CCCC[C@H](CN(O)C=O)C(=O)N1CCC[C@H]1c1nnc(-c2c(F)cccc2[N+](=O)[O-])s1 | 2 µg/mL |
| CCCC[C@H](CN(O)C=O)C(=O)N1CCC[C@H]1c1nnc(-c2cc(C)nn2C)s1 | 1 µg/mL |

# context switch: different compound, same MIC
Input line: For `CCCC[C@H](CN(O)C=O)C(=O)N1CCC[C@H]1c1nnc(-c2cc(C(F)(F)F)cc(C(F)(F)F)c2)s1` , what is its reported MIC?
Output line: 2 µg/mL

* * *

- Test system: Staphylococcus aureus
- assay-details: Antibacterial activity against methicillin-susceptible Staphylococcus aureus ATCC 25923 after 16 to 18 hrs by broth microdilution method
- Format: functional
- test-parameters: time 16-18 hrs
metric-name: MIC (µg/mL)
Give the value, in units of µg/mL, as a plain number.

| smi | MIC (µg/mL) |
| --- | --- |
| CCCC[C@H](CN(O)C=O)C(=O)N1CCC[C@H]1c1nnc(C)s1 | 4 |
| CCCC[C@H](CN(O)C=O)C(=O)N1CCC[C@H]1c1nnc(-c2ccc([N+](=O)[O-])cc2)s1 | 0.5 |
| CCCC[C@H](CN(O)C=O)C(=O)N1CCC[C@H]1c1nnc(-c2cscn2)s1 | 1 |
| CCCC[C@H](CN(O)C=O)C(=O)N1CCC[C@H]1c1nnc(-c2ccc(C(F)(F)F)cc2)s1 | 2 |

# context switch: different compound, same MIC
Input line: For `CCCC[C@H](CN(O)C=O)C(=O)N1CCC[C@H]1c1nnc(-c2sccc2C)s1` , what is its reported MIC?
Output line: 0.5

* * *

- System: Klebsiella pneumoniae
- assay-details: Antibacterial activity against Klebsiella pneumoniae CICC 21611 after 16 to 18 hrs by broth microdilution method
- Type: functional
- test-parameters: time 16-18 hrs
metric-name: MIC

Answered cases to consult:
| molecule | target-or-system | assay-result |
| --- | --- | --- |
| CCCC[C@H](CN(O)C=O)C(=O)N1CCC[C@H]1c1nnc(-c2ccccc2)s1 | Klebsiella pneumoniae | > 16 µg/mL |
| CCCC[C@H](CN(O)C=O)C(=O)N1CCC[C@H]1c1nnc(-c2ccc(C(C)(C)C)cc2)s1 | Klebsiella pneumoniae | > 16 µg/mL |
| CCCC[C@H](CN(O)C=O)C(=O)N1CCC[C@H]1c1nnc(C2CCOC2)s1 (some centres undefined) | Klebsiella pneumoniae | > 16 µg/mL |
| CCCC[C@H](CN(O)C=O)C(=O)N1CCC[C@H]1c1nnc(-c2cc(OC)c(OC)c(OC)c2)s1 | Klebsiella pneumoniae | > 16 µg/mL |
| CCCC[C@H](CN(O)C=O)C(=O)N1CCC[C@H]1c1nnc(-c2ccc(F)cn2)s1 | Klebsiella pneumoniae | > 16 µg/mL |
| CCCC[C@H](CN(O)C=O)C(=O)N1CCC[C@H]1c1nnc(-c2cc(C)nn2C)s1 | Klebsiella pneumoniae | 32 µg/mL |

# context switch: different molecule, same MIC
Input line: Lab note: need MIC with Klebsiella pneumoniae for entry `CCCC[C@H](CN(O)C=O)C(=O)N1CCC[C@H]1c1nnc(-c2ccsc2)s1` , please look it up.
Output line: 32 µg/mL

* * *

The compounds listed here are annotated with their MIC.
- Test system: Acinetobacter baumannii
- assay-details: Antibacterial activity against Acinetobacter baumannii Bio 69680 after 16 to 18 hrs by broth microdilution method
- Assay type: functional
- test-parameters: time 16-18 hrs
Give the value, in units of µg/mL, as a plain number.

Answered cases to consult:
| compound | unit-symbol | MIC |
| --- | --- | --- |
| CCCC[C@H](CN(O)C=O)C(=O)N1CCC[C@H]1c1nnc(-c2ccc(-c3ccccn3)cc2)s1 | µg/mL | 32 |
| CC(=O)NC[C@H]1CN(c2ccc(N3CCOCC3)c(F)c2)C(=O)O1 [LINEZOLID] | µg/mL | 128 |
| CCCC[C@H](CN(O)C=O)C(=O)N1CCC[C@H]1C(=O)Nc1ccc(F)c[n+]1[O-] | µg/mL | 16 |
| CCCC[C@H](CN(O)C=O)C(=O)N1CCC[C@H]1c1nnc(-c2cccs2)s1 | µg/mL | 4 |

# context switch: different compound, same MIC
Input line: For `CCCC[C@H](CN(O)C=O)C(=O)N1CCC[C@H]1c1nnc(-c2ccc([N+](=O)[O-])cc2F)s1` , what is its reported MIC?
Output line: 16

* * *

Target chain: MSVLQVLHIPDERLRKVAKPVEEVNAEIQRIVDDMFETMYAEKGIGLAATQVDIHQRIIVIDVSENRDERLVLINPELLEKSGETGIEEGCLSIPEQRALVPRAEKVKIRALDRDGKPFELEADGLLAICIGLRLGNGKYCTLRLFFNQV
metric-name: pIC50
pIC50 here is simply -log10 of the concentration when that concentration is written in mol/L.

| smi | pIC50 |
| --- | --- |
| CCCC[C@H](CN(O)C=O)C(=O)N1CCC[C@H]1c1nnc(-c2ccc(C)s2)s1 | 7.01 |
| CCCC[C@H](CN(O)C=O)C(=O)N1CCC[C@H]1c1nnc(-c2ccc(-c3ccccn3)cc2)s1 | 6.91 |

# context switch: different molecule, same pIC50
Input line: For `CCCC[C@H](CN(O)C=O)C(=O)N1CCC[C@H]1c1nnc(-c2cccs2)s1` , what is its reported pIC50?
Output line: 7.97

* * *

The molecules listed here are annotated with their MIC.
- Tested on: Staphylococcus aureus
- assay-details: Antibacterial activity against methicillin-susceptible Staphylococcus aureus ATCC 29213 after 16 to 18 hrs by broth microdilution method
- Assay type: functional
- test-parameters: time 16-18 hrs
Give the value, in units of µg/mL, as a plain number.

Answered cases to consult:
| smi | target-or-system | MIC (µg/mL) |
| --- | --- | --- |
| CCCC[C@H](CN(O)C=O)C(=O)N1CCC[C@H]1c1nnc(-c2ccc(Br)cc2)s1 | Staphylococcus aureus | 1 |
| CCCC[C@H](CN(O)C=O)C(=O)N1CCC[C@H]1c1nnc(Cc2cccs2)s1 | Staphylococcus aureus | 2 |
| CCCC[C@H](CN(O)C=O)C(=O)N1CCC[C@H]1c1nnc(-c2cc(OC)c(OC)c(OC)c2)s1 | Staphylococcus aureus | 4 |

Input line: For `CCCC[C@H](CN(O)C=O)C(=O)N1CCC[C@H]1c1nnc(C2CCCC2)s1` , what is its reported MIC?
Output line: 2

Input line: For `CCCC[C@H](CN(O)C=O)C(=O)N1CCC[C@H]1c1nnc(-c2ccccn2)s1` , what is its reported MIC?
Output line: 1

Input line: For `CCCC[C@H](CN(O)C=O)C(=O)N1CCC[C@H]1c1nnc(-c2ccc3[nH]ccc3c2)s1` , what is its reported MIC?
Output line: 4

Input line: For `CCCC[C@H](CN(O)C=O)C(=O)N1CCC[C@H]1c1nnc(-c2ccc(OC)cc2)s1` , what is its reported MIC?
Output line: 0.5
